- Test system: MCF7
- run_description: Antiproliferative activity against human MCF7 cells after 72 hrs by sulforhodamine B assay
- Format: functional, cell-based
- condition_info: MCF7, 72 h
pIC50: −log10 of the molar value.
recorded_endpoint: pIC50

COc1ncc(-c2ccc3ncnc(NCCN(C)C)c3c2)cc1NS(C)(=O)=O: 4.83

(A) COc1ncc(-c2ccc3ncnc(NCc4ccncc4)c3c2)cc1NS(=O)(=O)c1ccc(F)cc1F
(B) CCCCS(=O)(=O)Nc1cc(-c2ccc3ncnc(NCCN(C)C)c3c2)cnc1OC
**Query** When the recorded pIC50 values are compared, which is smaller: that of A or that of B ? # answer = label of selected item
**Result** A
